method: Mouse liver microsomal intrinsic clearance
Assay type: in vitro ADME
conditionNotes: Table 5; mouse liver microsomes
Decide using Mouse CLi alone. Strictly below 3 mL/min/g: MET. Equal to or above 3 mL/min/g: NOT MET.

INSERT INTO measurements (smilestext, grouplabel) VALUES
  ('O=C(Nc1ccc(F)c(-c2cc3cc(N4CCOCC4)cnn3n2)c1)N1CCCC1', 'MET'),
  ('O=C(Nc1ccc(F)c(-c2cn3nc(N4CCOCC4)cnc3n2)c1)N1CCCC1', 'MET'),
  ('O=C(Nc1cccc(-c2cc3ncc(-c4ccccc4)cn3n2)c1)N1CCCC1', 'NOT MET'),
  ('O=C(Nc1ccc(F)c(-c2nc3ncc(N4CCOCC4)cn3n2)c1)N1CCCC1', 'MET'),
  ('O=C(Nc1ccc(F)c(-c2cc3nc(N4CCOCC4)cnc3[nH]2)c1)N1CCCC1', 'NOT MET'),
  ('O=C(Nc1ccc(F)c(-c2cc3nc(N4CCOCC4)cnc3o2)c1)N1CCCC1', 'MET'),
  ('O=C(Nc1ccc(F)c(-c2cc3cc(N4CCOCC4)cnc3o2)c1)N1CCCC1', 'NOT MET'),
  ('O=C(Nc1cccc(-c2cc3cc(-c4ccccc4)cnc3[nH]2)c1)N1CCCC1', 'MET'),
  ('Cn1c(-c2cc(NC(=O)N3CCCC3)ccc2F)cc2cc(N3CCOCC3)cnc21', 'MET'),
  ('O=C(Nc1ccc(F)c(-c2cn3ncc(N4CCOCC4)cc3n2)c1)N1CCCC1', 'MET');

###

System: THP-1 cells
method: THP-1 host cell read-out of the INMAC assay
Format: cell-based
conditionNotes: Homo sapiens, THP-1; supplementary csv; read-out: THP1 pIC50 (converted)
Protocol: Intramacrophage L. donovani Assay. This assay was conducted as previously described, except for […]
readoutType: IC50

INSERT INTO results (compound, testresult) VALUES
  ('COc1ccc(NC(=O)N2CCCC2)cc1-c1cn2cc(N3CCOCC3)cnc2n1', '> 50.1 µM'),
  ('CC1(C)COCCN1c1cnc2nc(-c3cc(NC(=O)N4CCCC4)ccc3F)ccn12', '50.1 µM'),
  ('O=C(Nc1cccc(-c2cn3cc(N4CCOCC4)cnc3n2)c1)N1CCCC1', '> 50.1 µM'),
  ('CC1CN(c2cnc3nc(-c4cc(NC(=O)N5CCCC5)ccc4F)ccn23)CCO1 (stereo not drawn)', '50.1 µM'),
  ('O=C(Nc1cncc(-c2cn3cc(N4CCOCC4)cnc3n2)n1)N1CCCC1', '> 50.1 µM'),
  ('O=C(Nc1ccc(F)c(-c2ccn3c(N4CCCCC4)cnc3n2)c1)N1CCCC1', '50.1 µM'),
  ('O=C(Nc1ccc(F)c(-c2ccn3c(-c4ccccn4)cnc3n2)c1)N1CCCC1', '> 50.1 µM'),
  ('O=C(Nc1cccc(-c2cc3cc(-c4ccccc4)cnc3[nH]2)c1)N1CCCC1', '> 50.1 µM'),
  ('O=C(Nc1cccc(-c2nc3ccccc3o2)c1)c1ccco1', '> 50.1 µM'),
  ('CC(=O)N1CCN(c2cnc3nc(-c4cc(NC(=O)N5CCCC5)ccc4F)ccn23)CC1', '> 50.1 µM'),
  ('O=C(Nc1ccc(F)c(-c2ccn3c(N4CCNCC4)cnc3n2)c1)N1CCCC1', '> 50.1 µM'),
  ('CC(C)Cc1cnc2nc(-c3cc(NC(=O)N4CCCC4)ccc3F)ccn12', '63.1 µM');

###

method: in vivo
Assay type: in vivo
conditionNotes: female, NMRI, in vivo; po PK 10 mg/kg vs iv 3 mg/kg, mouse
readoutType: bioavailability at 24 h (%)

INSERT INTO assay_data (smilestext, testresult) VALUES
  ('O=C(Nc1ccc(F)c(-c2cn3cc(N4CCOCC4)cnc3n2)c1)N1CCCC1', 57);

###

method: Mouse liver microsomal intrinsic clearance
Assay type: in vitro ADME
conditionNotes: supplementary csv; mouse
Decide using Cli (mouse, ml/min/g) alone. Strictly below 2 mL/min/g: Yes. Equal to or above 2 mL/min/g: No.

INSERT INTO assay_data (molecule, grouplabel) VALUES
  ('O=C(Nc1ccc(F)c(-c2nc3ncc(N4CCOCC4)cn3n2)c1)N1CCCC1', 'Yes'),
  ('O=C(Nc1cccc(-c2nc3ccccc3o2)c1)c1ccco1', 'No'),
  ('O=C(Nc1ccc(F)c(-c2cc3cc(N4CCOCC4)cnc3o2)c1)N1CCCC1', 'No'),
  ('O=C(Nc1cccc(-c2cn3cc(N4CCOCC4)cnc3n2)c1)N1CCCC1', 'Yes'),
  ('O=C(Nc1cnnc(-c2cn3cc(N4CCOCC4)cnc3n2)c1)N1CCCC1', 'Yes'),
  ('O=C(Nc1ccc(F)c(-c2ccn3c(-c4ccccn4)cnc3n2)c1)N1CCCC1', 'Yes'),
  ('Cn1c(-c2cc(NC(=O)N3CCCC3)ccc2F)cc2cc(N3CCOCC3)cnc21', 'No'),
  ('CC1(C)CN(c2cnc3nc(-c4cc(NC(=O)N5CCCC5)ccc4F)ccn23)CCO1', 'No'),
  ('O=C(Nc1cncc(-c2cn3cc(N4CCOCC4)cnc3n2)n1)N1CCCC1', 'Yes'),
  ('CC1CN(c2cnc3nc(-c4cc(NC(=O)N5CCCC5)ccc4F)ccn23)CCO1 (stereo not drawn)', 'Yes'),
  ('CC(C)Nc1cnc2nc(-c3cc(NC(=O)N4CCCC4)ccc3F)ccn12', 'No'),
  ('O=C(Nc1ccc(F)c(-c2cc3nc(N4CCOCC4)cnc3o2)c1)N1CCCC1', 'No'),
  ('O=C(Nc1cc(-c2cn3cc(N4CCOCC4)cnc3n2)ccc1F)N1CCCC1', 'Yes'),
  ('CC(C)Cc1cnc2nc(-c3cc(NC(=O)N4CCCC4)ccc3F)ccn12', 'No'),
  ('CC1(C)COCCN1c1cnc2nc(-c3cc(NC(=O)N4CCCC4)ccc3F)ccn12', 'No'),
  ('O=C(Nc1ccc(F)c(-c2ccn3c(-c4ccccc4)cnc3n2)c1)N1CCCC1', 'No'),
  ('O=C(Nc1ccc(F)c(-c2cc3cc(N4CCOCC4)cnn3n2)c1)N1CCCC1', 'Yes');

###

method: Mouse liver microsomal intrinsic clearance
Type: in vitro ADME
conditionNotes: Table 2; mouse liver microsomes
Catalogue of Mouse CLi values
readoutType: Mouse CLi

INSERT INTO assay_data (compound, readouttype, testresult) VALUES
  ('O=C(Nc1cc(-c2cn3cc(N4CCOCC4)cnc3n2)ncn1)N1CCCC1 [Compound 10]', 'Mouse CLi', '<0.5 mL/min/g'),
  ('COc1ccc(NC(=O)N2CCCC2)cc1-c1cn2cc(N3CCOCC3)cnc2n1 [Compound 7]', 'Mouse CLi', '<0.5 mL/min/g'),
  ('O=C(Nc1cccc(-c2cn3cc(N4CCOCC4)cnc3n2)n1)N1CCCC1 [Compound 9]', 'Mouse CLi', '<0.5 mL/min/g'),
  ('O=C(Nc1cc(-c2cn3cc(N4CCOCC4)cnc3n2)ccc1F)N1CCCC1 [Compound 5]', 'Mouse CLi', '0.9 mL/min/g'),
  ('O=C(Nc1nccc(-c2cn3cc(N4CCOCC4)cnc3n2)n1)N1CCCC1 [Compound 12]', 'Mouse CLi', '<0.5 mL/min/g'),
  ('COc1ccc(-c2cn3cc(N4CCOCC4)cnc3n2)cc1NC(=O)N1CCCC1 [Compound 8]', 'Mouse CLi', '1.4 mL/min/g'),
  ('O=C(Nc1cnnc(-c2cn3cc(N4CCOCC4)cnc3n2)c1)N1CCCC1 [Compound 13]', 'Mouse CLi', '<0.5 mL/min/g'),
  ('O=C(Nc1cccc(-c2cn3cc(N4CCOCC4)cnc3n2)c1)N1CCCC1 [Compound 6]', 'Mouse CLi', '0.8 mL/min/g'),
  ('O=C(Nc1cncc(-c2cn3cc(N4CCOCC4)cnc3n2)n1)N1CCCC1 [Compound 11]', 'Mouse CLi', '<0.5 mL/min/g');

###

Test system: THP-1 cells
method: THP-1 host cell read-out of the INMAC assay
Assay type: cell-based
conditionNotes: Homo sapiens, THP-1; supplementary csv; read-out: THP1 pIC50 (converted)
Catalogue of IC50 values
readoutType: IC50

INSERT INTO measurements (compound, testresult) VALUES
  ('CC1(C)CN(c2cnc3nc(-c4cc(NC(=O)N5CCCC5)ccc4F)ccn23)CCO1 [Compound 42]', '25.1 µM'),
  ('O=C(Nc1cc(-c2cn3cc(N4CCOCC4)cnc3n2)ccc1F)N1CCCC1 [Compound 5]', '> 50.1 µM'),
  ('CC(C)c1cnc2nc(-c3cc(NC(=O)N4CCCC4)ccc3F)ccn12 [Compound 30]', '50.1 µM'),
  ('O=C(Nc1ccc(F)c(-c2cc3cc(N4CCOCC4)cnc3o2)c1)N1CCCC1 [Compound 20]', '> 50.1 µM'),
  ('O=C(Nc1ccc(F)c(-c2cn3ncc(N4CCOCC4)cc3n2)c1)N1CCCC1 [Compound 15]', '> 50.1 µM'),
  ('O=C(Nc1ccc(F)c(-c2ccn3c(-c4ccccc4)cnc3n2)c1)N1CCCC1 [Compound 28]', '50.1 µM'),
  ('O=C1CN(c2cnc3nc(-c4cc(NC(=O)N5CCCC5)ccc4F)ccn23)CCN1 [Compound 37]', '> 50.1 µM'),
  ('O=C(Nc1nccc(-c2cn3cc(N4CCOCC4)cnc3n2)n1)N1CCCC1 [Compound 12]', '> 50.1 µM');
